# MEASUREMENT TARGET: human PAH with the R408W mutation (A375 R408W cells) (Homo sapiens, UniProt P00439, R408W)
# Construct: expressed in transfected cells
# Sequence (P00439 whole entry R408W): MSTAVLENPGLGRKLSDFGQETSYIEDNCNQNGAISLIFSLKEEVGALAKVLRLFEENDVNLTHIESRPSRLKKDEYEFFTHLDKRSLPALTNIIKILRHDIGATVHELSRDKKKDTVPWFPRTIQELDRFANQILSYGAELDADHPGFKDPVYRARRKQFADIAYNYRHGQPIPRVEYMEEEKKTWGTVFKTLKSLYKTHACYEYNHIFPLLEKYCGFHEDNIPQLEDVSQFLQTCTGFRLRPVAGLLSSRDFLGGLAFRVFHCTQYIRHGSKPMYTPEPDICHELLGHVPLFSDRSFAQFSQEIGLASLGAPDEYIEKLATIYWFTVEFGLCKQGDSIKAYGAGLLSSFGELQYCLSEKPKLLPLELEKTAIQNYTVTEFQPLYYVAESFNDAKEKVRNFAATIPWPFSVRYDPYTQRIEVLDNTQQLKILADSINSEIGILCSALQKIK
# METHOD: Cell Based Phenylalanine Flux Assay
# CONDITION INFO: A375 cells expressing R408W PAH; 24 hrs with compound, then 20 μM sepiapterin and 800 μM 13C9,15N-Phenylalanine for 4 hours; 13C-Tyrosine by LC-MS; average where tested multiple times
Recorded AC50, one value per entry.
QUANTITY: AC50

[[record]]
compound = "Cc1ccc2oc(C3c4nc[nH]c4CCN3C(=O)c3cnco3)nc2c1 (centres unmarked)"
quantity = "AC50"
obs_value = "1 to 5 µM"

[[record]]
compound = "Cc1ccc2nc(C3c4nc[nH]c4CCN3C(=O)c3cncs3)oc2c1 (centres unmarked)"
quantity = "AC50"
obs_value = "1 to 5 µM"

[[record]]
compound = "Cc1nc(C2(O)CCC2)oc1C(=O)N1CCc2[nH]cnc2C1c1nc2cc(F)ccc2o1 (centres unmarked)"
quantity = "AC50"
obs_value = "≥ 5 µM"

[[record]]
compound = "Cn1ccc(C(=O)N2CCc3[nH]cnc3C2c2nc3cc(F)ccc3o2)n1 (centres unmarked)"
quantity = "AC50"
obs_value = "1 to 5 µM"

[[record]]
compound = "CC(C)(O)c1nc(C(F)F)c(C(=O)N2CC3(CC3)c3[nH]cnc3C2c2nc3cc(F)ccc3o2)o1 (centres unmarked)"
quantity = "AC50"
obs_value = "1 to 5 µM"


src = patent US20250171437A1
